The molecules listed here are annotated with their TGI.
- Tested on: SF-268 CNS
- Experimental Details: NCI tumour cell line growth inhibition, 48 h
Parameter Measured: TGI (µM)

>>> value("COC(=O)C1CCc2sc3ncnc(Nc4cn[nH]c4C(=O)Nc4ccc(CN5CCN(C)CC5)cc4)c3c21 (stereo not given)")
2.63
>>> value("Cc1cc(C)c(S(=O)(=O)N(CCCN)OCCCON(CCCN)S(=O)(=O)c2c(C)cc(C)cc2C)c(C)c1")
2.8
>>> value("Cn1c2c(c3ccc(Cl)c(Cl)c31)C(C#N)C1(CCNCC1)NC2=O (stereo not given)")
4.89
>>> value("CCOP(=O)(OCC)OC(C#N)c1ccc(-c2ccccc2)cc1 (stereo not given)")
44.4

---

- Tested on: DU-145 prostate
- Experimental Details: NCI tumour cell line growth inhibition, 48 h; in the data active = GI50 below about 0.43 µM; inactive = the rest
Possible outcomes: True for active, False for inactive

>>> assigned_label("NC(N)=NCCC1OC(=O)C2=C1c1c(O)ccc3nccc(c13)O2 (stereo not given)")
"False"
>>> assigned_label("COc1ccc(-c2ccc(-c3ccc(C(=N)N)cn3)o2)cc1")
"False"
>>> assigned_label("Nc1ccccc1C#C/C=C\\C#Cc1ccccc1")
"False"
>>> assigned_label("Cc1[nH]nc(C(=O)n2nc(N)c3ccccc32)c1[N+](=O)[O-]")
"False"
>>> assigned_label("C/C=C1\\NC(=O)[C@H]2CSSCCC=C[C@H](CC(=O)N[C@H](C(C)C)C(=O)N2)OC(=O)[C@H](C(C)C)NC1=O")
"True"

---

- Test system: KM12 colon
- Experimental Details: NCI tumour cell line growth inhibition, 48 h
The compounds listed here are annotated with their TGI.
Parameter Measured: TGI

>>> value("COc1cc(CC(C)NC(C)=O)cc(OC)c1 (configuration not stated)")
"> 100 µM"
>>> value("COC(=O)C(=O)C(C(=O)C(=O)Nc1cccc(C(C)=O)c1)c1nc2ccccc2[nH]c1=O (configuration not stated)")
"> 100 µM"
>>> value("NC(=O)c1cc2c3ccccc3ccn2c1-c1ccccc1")
"3.88 µM"
>>> value("COc1ccc2[nH]c(O)c(C(=Nc3ccc(N(C)C(=O)CN4CCN(C)CC4)cc3)c3ccccc3)c2c1")
"10.5 µM"
>>> value("N#CC1(O)CCCCCCCCCCC1")
"> 100 µM"
>>> value("COC(=O)C1(CCCCCBr)CCCCCCCCCCC1=O (configuration not stated)")
"> 100 µM"
>>> value("COc1cc(C(=O)Oc2ccc3c(c2)OCO3)cc(OC)c1OC")
"> 100 µM"

---

- System: NCI/ADR-RES ovarian
- Experimental Details: NCI tumour cell line growth inhibition, 48 h
Parameter Measured: GI50

>>> value("COC(=O)C1CCc2sc3ncnc(Nc4cn[nH]c4C(=O)Nc4ccc(CN5CCN(C)CC5)cc4)c3c21 (stereo not drawn)")
"3.27 µM"
>>> value("COc1cc(-c2n/c(=C\\c3c(O)[nH]c4ccc(Cl)cc34)cc3c2=Nc2ccccc2-3)ccc1F")
"2.03 µM"
>>> value("CCC[n+]1cc2cc(OC)c(OC)cc2c2c1-c1cc3c(cc1C2)OCO3")
"35.2 µM"
>>> value("Cc1[nH]nc(C(=O)n2nc(N)c3ccccc32)c1[N+](=O)[O-]")
"> 100 µM"
>>> value("CN(C)CCCNC(=O)c1ccc2c(c1)oc1cc3ccccc3c(=O)n12")
"> 50 µM"
>>> value("Cc1ccc(-c2csc(NC(=O)CN3CCN(c4cc5c(cc4F)c(=O)c(C(=O)O)cn5C4CC4)CC3)n2)cc1")
"3.06 µM"
>>> value("CC[PH+](CC)CC.O=COC1OC([S-])C(OC=O)C(OC=O)C1OC=O.[Au+] (stereo not drawn)")
"2.21 µM"
>>> value("Nc1ccccc1C#C/C=C\\C#Cc1ccccc1[N+](=O)[O-]")
"1.23 µM"
>>> value("COc1cc(S(=O)(=O)Nc2ccc(C(=O)/C=C/c3ccc(O)cc3)cc2)ccc1F")
"> 100 µM"
>>> value("CCn1c2ccc(O)cc2c2c(C)c3c[n+](C)ccc3c(C)c21")
"31.1 µM"
>>> value("OCCNc1ncnc2c1ncn2Cc1cccc(COc2cccc(OCc3cccc(Cn4cnc5c(NCCO)ncnc54)c3)c2)c1")
"> 100 µM"
>>> value("O=C(O)C1CCCCC1C(=O)O.[NH-]C1CCC1.[NH2-].[Pt+2] (stereo not drawn)")
"33.8 µM"
>>> value("COc1cc2c(=O)n(CCN)c3c4cc5c(cc4ccc3c2cc1OC)OCO5")
"1.26 µM"
>>> value("O=C1c2cc(Cl)ccc2-c2c1c1ccc([N+](=O)[O-])cc1c(=O)n2CCCBr")
"5.01 µM"
>>> value("CN1C(=O)N(C)C2C1NN=c1s/c(=C\\c3ccc(F)cc3)c(=O)n12 (stereo not drawn)")
"1.94 µM"
>>> value("COc1ccc2cc(-c3c(-c4ccncc4)nc(-c4ccc(S(C)(=O)=O)cc4C)n3C)ccc2c1")
"8.67 µM"
>>> value("COc1ccc(-c2ccc(-c3ccc(C(=N)N)cn3)o2)cc1")
"14.1 µM"
>>> value("COc1ccc(Cn2cc3c(c2)-c2oncc2CC3)cc1")
"2.86 µM"

---

- Test system: KM12 colon
- Experimental Details: NCI tumour cell line growth inhibition, 48 h
Parameter Measured: GI50

>>> value("COc1ccc2cc(-c3c(-c4ccncc4)nc(-c4ccc(S(C)(=O)=O)cc4C)n3C)ccc2c1")
"8.05 µM"
>>> value("CC[C@H](Nc1nc(C)nc(N)c1C#N)c1nc2cccc(NCc3ccc(C(=O)NO)cc3)c2c(=O)n1-c1ccccc1")
"1.81 µM"
>>> value("Cc1cc(S(=O)(=O)NC#N)c(S/C(=N\\Nc2ccc([N+](=O)[O-])cc2)c2ccc(Cl)cc2)cc1Cl")
"24.6 µM"
>>> value("Cc1cc(Cl)ccc1Nc1nc(C(F)(F)F)ccc1C(=O)N/N=C/c1ccc([N+](=O)[O-])cc1")
"0.838 µM"
>>> value("O=C(O)c1ccc2c(c1)CCCC(c1ccc(Cl)cc1Cl)=C2c1ccc(O[C@H]2CCN(CCCF)C2)cc1")
"7.29 µM"
>>> value("CCC[n+]1cc2cc(OC)c(OC)cc2c2c1-c1cc3c(cc1C2)OCO3")
"2.12 µM"
>>> value("Cc1ccc2nc(-c3ccc(N(C)C)c(Br)c3)cn2c1")
"54.1 µM"
>>> value("CN(C)CCCNC(=O)c1ccc2c(c1)oc1cc3ccccc3c(=O)n12")
"19.1 µM"
>>> value("Nc1ccccc1C#C/C=C\\C#Cc1ccccc1[N+](=O)[O-]")
"3.19 µM"

---

- System: ACHN renal
- Experimental Details: NCI tumour cell line growth inhibition, 48 h
The compounds listed here are annotated with their TGI.
Parameter Measured: TGI (µM)

>>> value("O=C(O)c1ccc2c(c1)CCCC(c1ccc(Cl)cc1Cl)=C2c1ccc(O[C@H]2CCN(CCCF)C2)cc1")
24.3
>>> value("C[C@]12CCC(=O)[C@@H](CCC3=CC(=O)C=CC3=O)[C@@H]1CCC2=O")
32.5
>>> value("COC(=O)c1nc(Cl)nc(Cl)c1Cl")
27.7
>>> value("COc1ccc(-c2ccc(-c3ccc(C(=N)N)cn3)o2)cc1")
19.6
>>> value("O=C1NC(=S)S/C1=C(/C=C(\\CC(=O)c1ccccc1)c1ccc(Cl)cc1)c1ccccc1")
61.3
>>> value("COc1cc2c(=O)n(CCN)c3c4cc5c(cc4ccc3c2cc1OC)OCO5")
1.52
>>> value("COc1cc(/C=C2\\C(=O)Nc3ccc(N(C)C)cc32)cc(OC)c1OC")
98.4
>>> value("Cc1cc(S(=O)(=O)Nc2n[nH]c(-c3ccccn3)n2)c(S)cc1Cl")
54.1

---

- System: HCT-15 colon
- Experimental Details: NCI tumour cell line growth inhibition, 48 h
The compounds listed here are annotated with their TGI.
Parameter Measured: TGI

>>> value("Cc1cc(S(=O)(=O)/N=C(/C(=C=[N-])C#N)[n+]2ccc(N(C)C)cc2)c(SCC(=O)O)cc1Cl")
"> 100 µM"
>>> value("COc1ccc(Cn2cc3c(c2)-c2oncc2CC3)cc1")
"> 70.6 µM"
>>> value("CC(CCC(=O)O)C(=O)O (stereo not drawn)")
"> 100 µM"
>>> value("CCOC(=O)/C=C1\\CCCC12OCCO2")
"> 100 µM"
>>> value("COC(=O)C1C(C(=O)OC)C2(OC(c3ccc(Cl)cc3)=CC2=O)C12OC(c1ccc(Cl)cc1)=CC2=O (stereo not drawn)")
"35.2 µM"
>>> value("C=C(C)OCOCCOC")
"> 100 µM"
>>> value("Cc1ccc(C(=O)N/N=C(\\N=Nc2ccccc2)c2ccc(N(C)C)cc2)cc1")
"> 100 µM"
>>> value("C/C(CCc1ccccc1)=N\\NC(N)=S")
"> 100 µM"
>>> value("O=c1nc2c(c(-c3ccc(Br)cc3)[nH]1)COC/C2=C\\c1ccc(Br)cc1")
"> 50 µM"
>>> value("COc1ccc2[nH]c(O)c(C(=Nc3ccc(N(C)C(=O)CN4CCN(C)CC4)cc3)c3ccccc3)c2c1")
"12 µM"
>>> value("C/C=C/C=C/C=C/C=C/C(=O)O")
"> 100 µM"
>>> value("CNCCn1c(=O)c2cc(OC)c(OC)cc2c2ccc3cc4c(cc3c21)OCO4")
"3.06 µM"
>>> value("COC(=O)C(CC(=O)Nc1ccc(C)cc1)C(=O)C(=O)Nc1ccccc1C(C)C (stereo not drawn)")
"> 100 µM"
>>> value("COC(=O)C1=C(C(=O)OC)SC(=CC#CC=C2SC(C(=O)OC)=C(C(=O)OC)S2)S1")
"> 45.1 µM"
>>> value("O=[N+]([O-])c1cnn(C2=CNc3ccccc3N=C2)c1")
"> 100 µM"
>>> value("O=C1c2cc(Cl)ccc2-c2c1c1ccc([N+](=O)[O-])cc1c(=O)n2CCCBr")
"> 100 µM"
>>> value("Cc1c(CN2CCN(C)CC2)c(CN2CCN(C)CC2)c(C)n1-c1ccc(Cl)cc1")
"> 100 µM"
>>> value("COc1ccccc1/C=C/C(=O)c1ccccc1")
"14.7 µM"
>>> value("O=C1C=CC(=O)N1n1c(-c2ccccc2)n[nH]c1=O")
"> 100 µM"
>>> value("COc1ccc(C2=NN(C=O)C(c3cccc(Nc4ccnc5cc(Cl)ccc45)c3)C2)cc1 (stereo not drawn)")
"17 µM"
>>> value("CCCCC1=C(C(=O)N2CCOCC2)C2(OCCO2)C1=O")
"40.3 µM"
>>> value("CSc1cc(=O)n2c3ccccc3c3ccnc1c32")
"> 100 µM"
>>> value("COC(=O)Cc1ccc2c(cnn2-c2ccccc2)c1OC")
"> 10 µM"
